System: FGF-2 (Homo sapiens, UniProt P09038) | Read-out: IC50
Sequence (P09038 143-288, species assumed): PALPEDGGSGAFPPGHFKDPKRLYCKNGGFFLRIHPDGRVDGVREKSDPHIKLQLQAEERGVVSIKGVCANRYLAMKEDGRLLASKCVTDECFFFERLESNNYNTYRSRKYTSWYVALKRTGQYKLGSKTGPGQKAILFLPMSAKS

molecule="C#CCCCOC1OC(COS(=O)(=O)[O-])C(OC2OC(C(=O)[O-])C(OC3OC(COS(=O)(=O)[O-])C(OC4OC(C(=O)[O-])C(OC5OC(COS(=O)(=O)[O-])C(OC6OC(C(=O)[O-])C(OCc7ccccc7)C(OCc7ccccc7)C6OS(=O)(=O)[O-])C(OCc6ccccc6)C5NS(=O)(=O)[O-])C(OC)C4OS(=O)(=O)[O-])C(OC)C3NS(=O)(=O)[O-])C(OCc3ccccc3)C2OS(=O)(=O)[O-])C(OCc2ccccc2)C1NS(=O)(=O)[O-].[Na+].[Na+].[Na+].[Na+].[Na+].[Na+].[Na+].[Na+].[Na+].[Na+].[Na+].[Na+] (stereo not shown)" value="121 nM"
molecule="C#CCCCOC1OC(COS(=O)(=O)[O-])C(OC2OC(C(=O)[O-])C(OC3OC(COS(=O)(=O)[O-])C(OC4OC(C(=O)[O-])C(OC5OC(COS(=O)(=O)[O-])C(OC6OC(C(=O)[O-])C(OCc7ccccc7)C(OCc7ccccc7)C6OS(=O)(=O)[O-])C(OC)C5NS(=O)(=O)[O-])C(OCc5ccccc5)C4OS(=O)(=O)[O-])C(OC)C3NS(=O)(=O)[O-])C(OCc3ccccc3)C2OS(=O)(=O)[O-])C(OC)C1NS(=O)(=O)[O-].[Na+].[Na+].[Na+].[Na+].[Na+].[Na+].[Na+].[Na+].[Na+].[Na+].[Na+].[Na+] (stereo not shown)" value="167 nM"
molecule="C#CCCCOC1OC(COS(=O)(=O)[O-])C(OC2OC(C(=O)[O-])C(OC3OC(COS(=O)(=O)[O-])C(OC4OC(C(=O)[O-])C(OC5OC(COS(=O)(=O)[O-])C(OC6OC(C(=O)[O-])C(OC)C(OC)C6OS(=O)(=O)[O-])C(OCc6ccccc6)C5NS(=O)(=O)[O-])C(OC)C4OS(=O)(=O)[O-])C(OCc4ccccc4)C3NS(=O)(=O)[O-])C(OC)C2OS(=O)(=O)[O-])C(OCc2ccccc2)C1NS(=O)(=O)[O-].[Na+].[Na+].[Na+].[Na+].[Na+].[Na+].[Na+].[Na+].[Na+].[Na+].[Na+].[Na+] (stereo not shown)" value="> 100000 nM"

Could you now consider this next molecule?
// IC50 (FGF-2 (Homo sapiens, UniProt P09038)) for C#CCCCOC1OC(COS(=O)(=O)O)C(OC2OC(C(=O)O)C(OC3OC(COS(=O)(=O)O)C(OC4OC(C(=O)O)C(OCc5ccccc5)C(OCc5ccccc5)C4OS(=O)(=O)O)C(OCc4ccccc4)C3NS(=O)(=O)O)C(OCc3ccccc3)C2OS(=O)(=O)O)C(OCc2ccccc2)C1NS(=O)(=O)O (stereo not shown) = 187 nM

###

biological target: PDGF-β (Homo sapiens, UniProt P01127)
Sequence (P01127 82-190 limits assumed): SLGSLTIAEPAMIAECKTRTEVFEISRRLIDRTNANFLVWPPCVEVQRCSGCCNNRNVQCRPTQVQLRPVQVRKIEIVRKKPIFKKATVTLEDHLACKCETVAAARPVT
# pIC50 listing for each entry below
Notebook: values listed as pIC50 are -log10 of the concentration (mol/L).

Field: example entries. Status: answers known.
compound="C#CCCCOC1OC(COS(=O)(=O)[O-])C(OC2OC(C(=O)[O-])C(OC3OC(COS(=O)(=O)[O-])C(OC4OC(C(=O)[O-])C(OC5OC(COS(=O)(=O)[O-])C(OC6OC(C(=O)[O-])C(OCc7ccccc7)C(OCc7ccccc7)C6OS(=O)(=O)[O-])C(OCc6ccccc6)C5NS(=O)(=O)[O-])C(OCc5ccccc5)C4OS(=O)(=O)[O-])C(OC)C3NS(=O)(=O)[O-])C(OC)C2OS(=O)(=O)[O-])C(OC)C1NS(=O)(=O)[O-].[Na+].[Na+].[Na+].[Na+].[Na+].[Na+].[Na+].[Na+].[Na+].[Na+].[Na+].[Na+] (stereo not drawn) [Compound 255]" value=6.91
compound="C#CCCCOC1OC(COS(=O)(=O)[O-])C(OC2OC(C(=O)[O-])C(OC3OC(COS(=O)(=O)[O-])C(OC4OC(C(=O)[O-])C(OC5OC(COS(=O)(=O)[O-])C(OC6OC(C(=O)[O-])C(OCc7ccccc7)C(OCc7ccccc7)C6OS(=O)(=O)[O-])C(OCc6ccccc6)C5NS(=O)(=O)[O-])C(OC)C4OS(=O)(=O)[O-])C(OC)C3NS(=O)(=O)[O-])C(OCc3ccccc3)C2OS(=O)(=O)[O-])C(OCc2ccccc2)C1NS(=O)(=O)[O-].[Na+].[Na+].[Na+].[Na+].[Na+].[Na+].[Na+].[Na+].[Na+].[Na+].[Na+].[Na+] (stereo not drawn) [Compound 252]" value=6.77

Could you now consider this next compound?
// pIC50 (PDGF-β (Homo sapiens, UniProt P01127)) for C#CCCCOC1OC(COS(=O)(=O)[O-])C(OC2OC(C(=O)[O-])C(OC3OC(COS(=O)(=O)[O-])C(OC4OC(C(=O)[O-])C(OC5OC(COS(=O)(=O)[O-])C(OC6OC(C(=O)[O-])C(OCc7ccccc7)C(OCc7ccccc7)C6OS(=O)(=O)[O-])C(OC)C5NS(=O)(=O)[O-])C(OCc5ccccc5)C4OS(=O)(=O)[O-])C(OC)C3NS(=O)(=O)[O-])C(OCc3ccccc3)C2OS(=O)(=O)[O-])C(OC)C1NS(=O)(=O)[O-].[Na+].[Na+].[Na+].[Na+].[Na+].[Na+].[Na+].[Na+].[Na+].[Na+].[Na+].[Na+] (stereo not drawn) [Compound 246] = 6.71

###

System: PDGF-β (Homo sapiens) | Read-out: IC50
Please respond with the number in nM and leave the unit unwritten.

compound="C#CCCCOC1OC(COS(=O)(=O)[O-])C(OC2OC(C(=O)[O-])C(OC3OC(COS(=O)(=O)[O-])C(OC4OC(C(=O)[O-])C(OC5OC(COS(=O)(=O)[O-])C(OC6OC(C(=O)[O-])C(OC)C(OC)C6OS(=O)(=O)[O-])C(OCc6ccccc6)C5NS(=O)(=O)[O-])C(OC)C4OS(=O)(=O)[O-])C(OCc4ccccc4)C3NS(=O)(=O)[O-])C(OC)C2OS(=O)(=O)[O-])C(OCc2ccccc2)C1NS(=O)(=O)[O-].[Na+].[Na+].[Na+].[Na+].[Na+].[Na+].[Na+].[Na+].[Na+].[Na+].[Na+].[Na+] (stereo not drawn)" value=1690
compound="C#CCCCOC1OC(COS(=O)(=O)[O-])C(OC2OC(C(=O)[O-])C(OC3OC(COS(=O)(=O)[O-])C(OC4OC(C(=O)[O-])C(OC5OC(COS(=O)(=O)[O-])C(OC6OC(C(=O)[O-])C(OC)C(OC)C6OS(=O)(=O)[O-])C(OC)C5NS(=O)(=O)[O-])C(OC)C4OS(=O)(=O)[O-])C(OC)C3NS(=O)(=O)[O-])C(OC)C2OS(=O)(=O)[O-])C(OC)C1NS(=O)(=O)[O-].[Na+].[Na+].[Na+].[Na+].[Na+].[Na+].[Na+].[Na+].[Na+].[Na+].[Na+].[Na+] (stereo not drawn)" value=28000

Could you now consider this next compound?
// IC50 (PDGF-β (Homo sapiens)) for C#CCCCOC1OC(COS(=O)(=O)O)C(OC2OC(C(=O)O)C(OC3OC(COS(=O)(=O)O)C(OC4OC(C(=O)O)C(OCc5ccccc5)C(OCc5ccccc5)C4OS(=O)(=O)O)C(OCc4ccccc4)C3NS(=O)(=O)O)C(OCc3ccccc3)C2OS(=O)(=O)O)C(OCc2ccccc2)C1NS(=O)(=O)O (stereo not drawn) = 1350
